- assay_system: GppNHp-KRAS G12D mutant protein (Homo sapiens, UniProt P01116, G12D)
- Construct: purchased Daegu Gyeongbuk Medical Innovation Foundation (DGMIF), made to order
- procedure_details: Differential scanning fluorimetry (DSF) binding affinity to GppNHp-KRAS G12D mutant protein
- condition: DSF thermal shift, 10 μM compound, 4 μg KRAS protein, 50 mM HEPES (pH 7.5)
measurement_type: GppNHp-KRAS G12D (ΔTmD, ° C.) (°C)
Write it as a number; the unit °C goes unstated.

Can you share its GppNHp-KRAS G12D (ΔTmD, ° C.)? I mean this compound: Cc1cc(N)nc(-c2cc3nc(OC[C@@]45CCCN4C[C@H](F)C5)nc(N4[C@@H]5CC[C@H]4CNC5)c3n3ccnc23)c1C(F)(F)F [Example 20]
0.27

Recorded GppNHp-KRAS G12D (ΔTmD, ° C.) for C#Cc1c(F)ccc2cc(O)cc(-c3cc4nc(OCC5(CN6CC[C@@H](F)C6)CC5)nc(N5[C@@H]6CC[C@H]5CNC6)c4n4ccnc34)c12 [Example 16] , please?
4.27

Sample Nc1nc2c(-c3cc4nc(OC[C@@]56CCCN5C[C@H](F)C6)nc(N5[C@@H]6CC[C@H]5CNC6)c4n4ccnc34)ccc(F)c2s1 [Example 15] — what was its GppNHp-KRAS G12D (ΔTmD, ° C.)?
0.28

Item under review: Cc1cc2c(o1)c(-c1cc(N)ccc1C(F)(F)F)c(F)c1nc(OC[C@@]34CCCN3C[C@H](F)C4)nc(N3CC4CCC(C3)N4)c12 [Example 49] . Reported GppNHp-KRAS G12D (ΔTmD, ° C.)?
0.73

Reported GppNHp-KRAS G12D (ΔTmD, ° C.), compound C#Cc1c(F)ccc2cc(O)cc(-c3cc4nc(OC[C@@]56CCCN5C[C@H](F)C6)nc(N5C[C@H]6CC[C@@H](C5)N6)c4c4cc(C)oc34)c12 [Example 42] : ____
5.75

Return reported GppNHp-KRAS G12D (ΔTmD, ° C.); argument: C#Cc1c(F)ccc2cccc(-c3cc4nc(OC[C@@]56CCCN5C/C(=C\F)C6)nc(N5C[C@H]6CC[C@@H](C5)N6)c4n4ccnc34)c12 [Example 27]
0.71

---

- System: KRAS G12D mutant pancreatic cancer cell line AsPC-1
- procedure_details: Cell viability assay using KRAS G12D mutant cells (AsPC-1, 3D culture, celltiter-glo 3D)
- Format: cell-based
- condition: Homo sapiens, ASPC1, 5th day after compound treatment
For each record, write down the corresponding pIC50.
Units for pIC50: none; it is -log10 of a concentration expressed in mol/L.

# query: pIC50 | item C#Cc1c(F)ccc2cc(O)cc(-c3c(F)c4nc(OCC5(CN6CC[C@@H](F)C6)CCC5)nc(N5C[C@H]6CC[C@@H](C5)N6)c4c4cn(C)nc34)c12 [Example 98] | system: KRAS G12D mutant pancreatic cancer cell line AsPC-1
6.96

Observed pIC50 on KRAS G12D mutant pancreatic cancer cell line AsPC-1 for C#Cc1c(F)ccc2cc(O)cc(-c3cc4nc(OC[C@@]56CCCN5C/C(=C\F)C6)nc(N5C[C@H]6CC[C@@H](C5)N6)c4n4ccnc34)c12 [Example 29] , please.
7.72

For KRAS G12D mutant pancreatic cancer cell line AsPC-1, provide pIC50 of C#Cc1c(F)ccc2cc(O)cc(-c3c(F)c4nc(OC[C@]56CC(=C)CN5C[C@@H](F)C6)nc(N5C[C@H]6CC[C@@H](C5)N6)c4c4cn(C)nc34)c12 [Example 100] please.
7.54

# returns recorded pIC50 (system: KRAS G12D mutant pancreatic cancer cell line AsPC-1) for C#Cc1c(F)ccc2cc(O)cc(-c3cc4nc(OCC5(CN6CCC7(CC6)CC7(F)F)CC5)nc(N5C[C@H]6CC[C@@H](C5)N6)c4c4cn(C)nc34)c12 [Example 73]
7.43

Lab note: need pIC50 with KRAS G12D mutant pancreatic cancer cell line AsPC-1 for entry C#Cc1c(F)ccc2cc(O)cc(-c3c(F)c4nc(OC[C@@]56CCCN5C/C(=C\F)C6)nc(N5C[C@H]6CC[C@@H](C5)N6)c4c4cn(C)nc34)c12 [Example 94] , please look it up.
7.85
